B1: FAM107A (parent)
chain: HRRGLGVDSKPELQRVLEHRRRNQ

- Variants of: B1
- method-description: protein stability index of a GFP-peptide fusion (GPS, HEK-293T) (PSI 1-6); higher = more stable;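 note: lentivirally expressed fusions sorted by FACS into six bins by GFP to DsRed ratio, PSI derived from sequencing read proportions per bin multiplied by bin number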
- particulars: c terminus: a fixed tail appended
A collection of variants and their measured protein stability index

# variant, protein stability index
data = [
    ("G6H", 3.22),
    ("K10C", 3.82),
    ("L17Q", 4.99),
    ("N23D", 3.85),
]
